- TARGET_DESC: hTLR9 (Homo sapiens, UniProt Q9NR96)
- Sequence (Q9NR96 26-1032): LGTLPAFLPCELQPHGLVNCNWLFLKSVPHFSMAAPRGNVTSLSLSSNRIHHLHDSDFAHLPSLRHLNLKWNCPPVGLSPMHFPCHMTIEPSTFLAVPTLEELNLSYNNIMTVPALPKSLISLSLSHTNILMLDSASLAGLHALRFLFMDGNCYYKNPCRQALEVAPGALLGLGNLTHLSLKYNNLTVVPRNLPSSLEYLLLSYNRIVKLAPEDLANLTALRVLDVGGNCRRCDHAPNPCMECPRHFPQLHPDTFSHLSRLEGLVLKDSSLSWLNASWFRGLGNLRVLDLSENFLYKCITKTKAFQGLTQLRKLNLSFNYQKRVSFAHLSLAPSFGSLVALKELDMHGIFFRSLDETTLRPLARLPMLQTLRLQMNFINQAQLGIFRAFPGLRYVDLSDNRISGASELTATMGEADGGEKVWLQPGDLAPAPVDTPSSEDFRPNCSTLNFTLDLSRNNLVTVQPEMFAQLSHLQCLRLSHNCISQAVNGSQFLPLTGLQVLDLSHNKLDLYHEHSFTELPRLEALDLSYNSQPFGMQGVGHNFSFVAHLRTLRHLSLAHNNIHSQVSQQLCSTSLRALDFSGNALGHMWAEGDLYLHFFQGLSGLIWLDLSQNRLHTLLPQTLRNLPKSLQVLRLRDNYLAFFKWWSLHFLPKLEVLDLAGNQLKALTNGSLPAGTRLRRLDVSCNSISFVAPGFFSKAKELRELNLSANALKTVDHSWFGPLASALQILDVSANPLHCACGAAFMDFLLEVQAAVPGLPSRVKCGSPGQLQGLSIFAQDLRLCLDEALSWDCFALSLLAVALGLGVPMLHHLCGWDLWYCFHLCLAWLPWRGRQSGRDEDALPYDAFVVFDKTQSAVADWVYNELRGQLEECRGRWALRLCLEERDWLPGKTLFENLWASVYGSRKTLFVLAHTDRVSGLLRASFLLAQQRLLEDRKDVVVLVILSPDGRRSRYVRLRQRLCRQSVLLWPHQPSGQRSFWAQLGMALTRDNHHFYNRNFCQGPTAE
- EXPERIMENT: HEK293-Blue-hTLR-9 cells assay (SEAP reporter, ODN2006 stimulation)
- Type: cell-based
- Parameters: host or cells: HEK293 (HEK-Blue hTLR9)
- TEST_SETTINGS: HEK293-Blue-hTLR9 cells, ODN2006, 20 hrs; read-out: HEK/hTLR9 IC50
MEASUREMENT_NAME: IC50

compound="CO[C@H]1CN(c2ccnc(N3CCN(C[C@H]4CN(c5ccc(C#N)c6ncccc56)C[C@@H](C)O4)CC3)n2)C[C@@H]1N [Example 97]" target_desc="hTLR9 (Homo sapiens, UniProt Q9NR96)" measurement_name=IC50 reported_measurement="34 nM"
compound="C[C@@H]1CN(c2ccc(C#N)c3ncccc23)C[C@H](CN2CCN(c3cccc(N4CCNCC4)n3)CC2)O1 [Example 10]" target_desc="hTLR9 (Homo sapiens, UniProt Q9NR96)" measurement_name=IC50 reported_measurement="105 nM"
compound="C[C@@H]1CN(c2cc(=O)n(C)c3ncccc23)C[C@H](CN2CC(c3ccc(N4CC5(CNCCO5)C4)cc3)C2)O1 [Example 173]" target_desc="hTLR9 (Homo sapiens, UniProt Q9NR96)" measurement_name=IC50 reported_measurement="60 nM"
compound="C[C@@H]1CN(c2ccc(C#N)c3ncccc23)C[C@H](CN2CCN(c3cc(N4CCN(C)CC4)ncn3)CC2)O1 [Example 21]" target_desc="hTLR9 (Homo sapiens, UniProt Q9NR96)" measurement_name=IC50 reported_measurement="219 nM"
compound="CO[C@H]1CN(c2cccc(N3CCN(C[C@H]4CN(c5ccc(C#N)c6ncccc56)C[C@@H](C)O4)CC3)n2)C[C@H]1N [Example 42]" target_desc="hTLR9 (Homo sapiens, UniProt Q9NR96)" measurement_name=IC50 reported_measurement="147 nM"
compound="C[C@@H]1CN(c2ccc(C#N)c3ncccc23)C[C@H](CN2CC(c3ccc(N4CCNCC4)cc3)C2)O1 [Example 3]" target_desc="hTLR9 (Homo sapiens, UniProt Q9NR96)" measurement_name=IC50 reported_measurement="52 nM"
compound="C[C@@H]1CN(c2ccc(C#N)c3ncccc23)C[C@H](CN2CCN(c3ccnc(N4CC(N)C4)n3)CC2)O1 [Example 23]" target_desc="hTLR9 (Homo sapiens, UniProt Q9NR96)" measurement_name=IC50 reported_measurement="232 nM"
compound="C[C@@H]1CN(c2ccc(C#N)c3ncccc23)C[C@H](CN2CCN(c3nc(N4CCNCC4)nc4ccccc34)CC2)O1 [Example 49]" target_desc="hTLR9 (Homo sapiens, UniProt Q9NR96)" measurement_name=IC50 reported_measurement="146 nM"
compound="[2H]c1ccc2c(N3C[C@H](CN4CCN(c5ccc(N6C[C@@H]7C[C@H]6CN7)nc5)CC4)O[C@H](C)C3)ccc(C#N)c2n1 [Example 151]" target_desc="hTLR9 (Homo sapiens, UniProt Q9NR96)" measurement_name=IC50 reported_measurement="96 nM"

* * *

- TARGET_DESC: human TLR7 (Homo sapiens, UniProt Q9NYK1)
- Sequence (Q9NYK1 27-1049): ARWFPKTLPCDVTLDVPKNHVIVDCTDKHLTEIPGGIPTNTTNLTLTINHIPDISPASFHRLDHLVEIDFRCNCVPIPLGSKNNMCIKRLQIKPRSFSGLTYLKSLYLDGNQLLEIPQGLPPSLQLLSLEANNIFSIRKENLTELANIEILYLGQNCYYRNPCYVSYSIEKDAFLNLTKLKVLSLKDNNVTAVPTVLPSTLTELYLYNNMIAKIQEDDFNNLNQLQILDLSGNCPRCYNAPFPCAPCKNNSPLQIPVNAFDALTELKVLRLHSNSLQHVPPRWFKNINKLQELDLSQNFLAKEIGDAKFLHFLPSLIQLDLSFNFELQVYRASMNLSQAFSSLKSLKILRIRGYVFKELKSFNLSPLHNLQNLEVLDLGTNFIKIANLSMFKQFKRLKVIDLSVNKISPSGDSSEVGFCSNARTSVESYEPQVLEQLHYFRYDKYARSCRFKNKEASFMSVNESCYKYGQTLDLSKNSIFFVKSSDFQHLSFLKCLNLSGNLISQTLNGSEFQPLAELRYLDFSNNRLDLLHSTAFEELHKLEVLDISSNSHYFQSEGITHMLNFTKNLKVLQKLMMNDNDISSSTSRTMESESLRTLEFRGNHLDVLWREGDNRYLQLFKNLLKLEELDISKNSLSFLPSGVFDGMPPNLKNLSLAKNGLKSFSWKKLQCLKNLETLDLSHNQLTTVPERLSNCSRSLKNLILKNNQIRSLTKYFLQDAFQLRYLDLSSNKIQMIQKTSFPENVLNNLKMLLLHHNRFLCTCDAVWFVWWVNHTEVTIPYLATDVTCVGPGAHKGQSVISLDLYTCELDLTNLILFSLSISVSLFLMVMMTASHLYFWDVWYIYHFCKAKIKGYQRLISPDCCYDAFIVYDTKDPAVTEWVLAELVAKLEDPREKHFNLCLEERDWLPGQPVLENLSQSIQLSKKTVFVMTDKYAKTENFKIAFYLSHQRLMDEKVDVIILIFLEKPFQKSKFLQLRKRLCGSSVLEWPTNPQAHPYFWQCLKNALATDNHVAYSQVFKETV
- EXPERIMENT: HEK293-Blue-hTLR-7 cells assay (SEAP reporter, R848 stimulation)
- TEST_SETTINGS: HEK293-Blue-hTLR7 cells, R848, 20 hrs; read-out: HEK/hTLR7 IC50
MEASUREMENT_NAME: IC50 (µM)

molecule=CO[C@@H]1CN(c2ccc(N3CCN(C[C@H]4CN(c5ccc(C#N)n6ncc(F)c56)C[C@@H](C)O4)CC3)cn2)C[C@H]1N target_desc="human TLR7 (Homo sapiens, UniProt Q9NYK1)" reported_measurement=0.021
molecule=C[C@@H]1CN(c2ccc(C#N)c3nccnc23)C[C@H](CN2CCN(c3nccc(N4C[C@@H](N)[C@H](F)C4)n3)CC2)O1 target_desc="human TLR7 (Homo sapiens, UniProt Q9NYK1)" reported_measurement=0.016
molecule="Cc1cc(N2CCN(C[C@H]3CN(c4ccc(C#N)c5ncccc45)C[C@@H](C)O3)CC2)nc(N2C[C@H](N)C[C@H](F)C2)n1 (relative stereo)" target_desc="human TLR7 (Homo sapiens, UniProt Q9NYK1)" reported_measurement=0.024
molecule=C[C@@H]1CN(c2ccc(C#N)c3ncccc23)C[C@H](CN2CCN(c3ccnc(N4C[C@H]5NCCO[C@@H]5C4)n3)CC2)O1 target_desc="human TLR7 (Homo sapiens, UniProt Q9NYK1)" reported_measurement=0.01
